Each record here notes measured Ka.
Target: 5-hydroxytryptamine receptor 3A (Homo sapiens)
Experiment: Antagonist activity at 5HT3A (unknown origin) transfected in HEK cells assessed as decrease in agonist-induced intracellular calcium release incubated for 30 mins by FRET assay
Type: cell-based
# unit: µM | format: bare number

Some molecules with recorded Ka:
CSc1nc(-c2ccsc2)cc(N(Cc2ccccn2)Cc2ccccn2)n1; 2.2
COc1ccc(-c2cc(N(Cc3ccccn3)Cc3ccccn3)nc(N)n2)c(F)c1; 5.3

We now examine a further molecule.
Please report the recorded Ka for "COc1ccccc1-c1cc(N(Cc2ccccc2)Cc2ccccn2)nc(N)n1" .
4.1

---

Molecular target: Neuronal acetylcholine receptor subunit alpha-7 (Homo sapiens)
Sequence (P36544 whole entry): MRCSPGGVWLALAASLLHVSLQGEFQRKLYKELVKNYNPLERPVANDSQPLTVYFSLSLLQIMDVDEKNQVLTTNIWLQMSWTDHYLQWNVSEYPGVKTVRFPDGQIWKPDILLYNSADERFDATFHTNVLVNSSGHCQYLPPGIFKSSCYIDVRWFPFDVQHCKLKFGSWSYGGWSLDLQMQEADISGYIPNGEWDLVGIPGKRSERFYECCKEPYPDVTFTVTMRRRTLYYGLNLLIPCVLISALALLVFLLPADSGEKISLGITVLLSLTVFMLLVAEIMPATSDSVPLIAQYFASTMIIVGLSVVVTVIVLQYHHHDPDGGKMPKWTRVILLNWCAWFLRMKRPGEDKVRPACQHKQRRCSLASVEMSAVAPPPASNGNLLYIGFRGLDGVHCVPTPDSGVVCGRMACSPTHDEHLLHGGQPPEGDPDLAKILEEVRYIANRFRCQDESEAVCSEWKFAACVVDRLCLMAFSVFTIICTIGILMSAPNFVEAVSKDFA
Assay: Agonist activity at human alpha7 nAChR expressed in Xenopus laevis oocytes assessed as increase in channel currents at -60 mV holding potential by two electrode voltage clamp assay relative Ach
Format: cell-based
Each record here notes measured Imax.
Answer using only a numeral; do not append any unit.

Worked examples, 3 compounds total:
COc1ccccc1-c1cc(N(Cc2ccccn2)Cc2ccccn2)nc(N)n1; 0.98
COc1ccc(-c2cc(N(Cc3ccccn3)Cc3ccccn3)ncn2)c(F)c1; 0.53
COc1ccccc1-c1cc(N(Cc2ccccn2)Cc2ccccn2)ncn1; 0.89

I would be grateful if you could share the reported Imax for "COc1ccc(-c2cc(N(Cc3ccccn3)Cc3ccccn3)nc(N)n2)c(F)c1" .
0.84

---

Target: Neuronal acetylcholine receptor; alpha4/beta2 (Homo sapiens) (UniProt P17787+P43681)
Assay: Antagonist activity at alpha4beta2 nAChR (unknown origin) transfected in HEK cells assessed as decrease in epibatidine-induced intracellular calcium release incubated for 30 mins by FRET assay
Listing: Ka of selected compounds
Give the value, in units of µM, as a plain number.

Check out these entries, answers already filled in.
COc1ccccc1-c1cc(N(Cc2ccccn2)Cc2ccccn2)nc(SC)n1; 1.1
COc1ccccc1-c1cc(N(Cc2ccccn2)Cc2ccccn2)nc(N)n1; 6.3
COc1ccccc1-c1cc(N(Cc2ccccn2)Cc2ccccn2)ncn1; 7.9

Quick one: Ka for "Fc1ccccc1-c1cc(N(Cc2ccccn2)Cc2ccccn2)ncn1" ?
5.6

GET /values?readout=Ka&item= "COc1ccccc1-c1cc(N(Cc2ccccn2)Cc2ccccn2)nc(S(C)(=O)=O)n1"
7.2
